# PROTOCOL TEXT: Volume of distribution in iv dosed rat
# Assay type: ADME, organism-based
# PROTOCOL CONDITIONS: in vivo

- SMILES: "CS(=O)(=O)Cc1cc(N2CCOCC2)nc(-c2ccc3[nH]ccc3c2)n1"
  Vd (L/kg): 0.4

* * *

Below is a list of entries, each paired with its recorded logD value.
# PROTOCOL TEXT: physchem
# PROTOCOL CONDITIONS: buffer, pH 7.4

- SMILES: "CS(=O)(=O)Cc1cc(N2CCOCC2)nc(-c2ccc(NS(C)(=O)=O)cc2)n1"
  COMPARISON SYMBOL: "="
  logD: 0.85
- SMILES: "O=S(=O)(CCc1cnccn1)Cc1cc(N2CCOCC2)nc(-c2ccccn2)n1"
  COMPARISON SYMBOL: "<"
  logD: 0.5
- SMILES: "CS(=O)(=O)Cc1cc(N2CCOCC2)nc(-c2cccc3[nH]ccc23)n1"
  COMPARISON SYMBOL: "="
  logD: 1.7
- SMILES: "C[C@H]1COCCN1c1cc(CS(C)(=O)=O)nc(-c2ccc3[nH]ccc3c2)n1"
  COMPARISON SYMBOL: "="
  logD: 2.4
- SMILES: "CS(=O)(=O)Cc1cc(N2CCOCC2)nc(NC(=O)c2ccno2)n1"
  COMPARISON SYMBOL: "="
  logD: 1.74
- SMILES: "CS(=O)(=O)Cc1cc(N2CCOCC2)nc(-c2ccc(NC(=O)Nc3ccc(F)cc3)cc2)n1"
  COMPARISON SYMBOL: ">"
  logD: 3.2
- SMILES: "CS(=O)(=O)Cc1cc(N2CCOCC2)nc(-c2ccccc2)n1"
  COMPARISON SYMBOL: "="
  logD: 1.94
- SMILES: "O=S(=O)(Cc1cc(N2CCOCC2)nc(-c2ccccn2)n1)c1ccccc1"
  COMPARISON SYMBOL: "="
  logD: 1.34
- SMILES: "CS(=O)(=O)Cc1cc(N2CCOCC2)nc(-c2ccc3[nH]ccc3c2)n1"
  COMPARISON SYMBOL: "="
  logD: 2.1

Where these numbers come from: ChEMBL document CHEMBL2029234
